The reported numbers originate from the supplement of paper PMC10567573.

B1: FEM1A (parent)
chain: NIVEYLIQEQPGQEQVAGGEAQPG

Variants of: B1
ASSAY_EXPLANATION: protein stability index of a GFP-peptide fusion (GPS, HEK-293T) (PSI 1-6); higher = more stable;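 note: lentivirally expressed fusions sorted by FACS into six bins by GFP to DsRed ratio, PSI derived from sequencing read proportions per bin multiplied by bin number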
CONDITION_LABEL: c terminus: a fixed tail appended
EXPERIMENTAL_READOUT: protein stability index
Give the value as a plain number.

* NIVEYLIQEQPGQEQVAGGEAQHG | 3.98
* NIVEYLIQEQPGQEQVAGGEAQRG | 3.66
* NIVEYLIQEQPGQEQTAGGEAQPG | 4.42
* NIVKYLIQEQPGQEQVAGGEAQPG | 4.11
* NIVEYLIPEQPGQEQVAGGEAQPG | 4.71
* NIVEYLIQEQPGQEQQAGGEAQPG | 4.3
* NIVEYLIQEQPIQEQVAGGEAQPG | 3.86
* NIVEYLIQEQPGQEQVAGGFAQPG | 3.46
* NIVEYLIQEQPGQEQVAGGEAQSG | 4.46
* NIVEYLIQAQPGQEQVAGGEAQPG | 2.91

Please fill in: protein stability index reported for NIVEYLIQEQRGQEQVAGGEAQPG = 3.42

Please fill in: protein stability index reported for NIVEYLIQEQPGQEQVAGGEHQPG = 3.77

Please fill in: protein stability index reported for NIVEYLIQEQPGQEQVMGGEAQPG = 3.96

Please fill in: protein stability index reported for NIVEYQIQEQPGQEQVAGGEAQPG = 5.35

Please fill in: protein stability index reported for NIVESLIQEQPGQEQVAGGEAQPG = 4.83

Please fill in: protein stability index reported for NIVEYLIQEQPGQNQVAGGEAQPG = 3.54

Please fill in: protein stability index reported for NIVEYLIQEQPVQEQVAGGEAQPG = 3.95

Please fill in: protein stability index reported for NIEEYLIQEQPGQEQVAGGEAQPG = 5.36

Please fill in: protein stability index reported for NIVEYLIQEQPGQDQVAGGEAQPG = 4.39

Please fill in: protein stability index reported for NIVEYLIQEQPGQEQVAGGEWQPG = 3.03

Please fill in: protein stability index reported for NIVEYLIQEQPGQEQVAGGDAQPG = 4.59

Please fill in: protein stability index reported for NIVEYLIQEQPGQEQVAGGIAQPG = 3.53

Please fill in: protein stability index reported for NIVEYLICEQPGQEQVAGGEAQPG = 3.36

Please fill in: protein stability index reported for NAVEYLIQEQPGQEQVAGGEAQPG = 5.21

Please fill in: protein stability index reported for NIVEYLIQEQPGQEQVAGGAAQPG = 3.89

Please fill in: protein stability index reported for NIVEYLIQEQPGQEQVAGVEAQPG = 3.96
